I'd be grateful if you could share measured binding affinity ratio (ratio to standard peptide) for these entries.
Molecular target: HLA-A*0201 (human)
Assay: competitive inhibition of 125I-labelled standard peptide binding to purified HLA, gel filtration
Settings: remark: other sources report otherwise
Give bare numbers.

Example entries begin here.
# binder, endpoint result
rows = [
    ("KITDVVKVLGL (modifications not checked) [… (Kallikrein, position 131)]", 0.0002),
    ("ITSWGPEPCAL (modifications not checked)", 0.0003),
    ("ITSWGSEPCAL (modifications not checked) [… (PSA, position 222)]", 0.001),
]

API: the following record is the query input.
Ask: Need binding affinity ratio (ratio to standard peptide), item ITSWGPEPCA (modifications not checked)
Result: 0.0003

Reference source for all entries: patent US20070020327A1
